System Under Test: T1, eukaryotically produced human IL-6 (human, UniProt P05231 30-212)
T1 construct: also called eukIL-6; Euk IL-6
Run Description: SPR; periplasmic fraction; against parental 29B11
Parameter: fold improvement KD. Scope: all listed entries.
API: value field is a number in fold; no unit string.

Fab 55H1 (Fab, V domains shown, VL-shuffled Fab of 29B11, periplasmic fraction; also called 55H1c) VH: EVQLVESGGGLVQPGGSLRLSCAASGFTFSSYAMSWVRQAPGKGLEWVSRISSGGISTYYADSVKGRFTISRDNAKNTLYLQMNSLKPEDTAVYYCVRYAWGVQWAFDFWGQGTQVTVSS VL: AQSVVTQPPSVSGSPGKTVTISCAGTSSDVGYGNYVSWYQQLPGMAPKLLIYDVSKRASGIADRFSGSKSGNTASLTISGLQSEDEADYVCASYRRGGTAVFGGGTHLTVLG	5.59
Fab 47C2 (Fab, V domains shown, VL-shuffled Fab of 29B11, periplasmic fraction; also called 47C2 (R4)) VH: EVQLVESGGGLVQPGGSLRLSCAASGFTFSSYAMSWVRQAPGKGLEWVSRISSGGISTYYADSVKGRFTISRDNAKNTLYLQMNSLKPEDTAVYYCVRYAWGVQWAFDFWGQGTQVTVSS VL: LSYDLTQPPSVSGSPGKTVTISCAGTSSDVGYGNYVSWYQQLPGMAPKILIYDVNKRASGIADRFSGSKSGNTASLTISGLQSEDEADYYCASYRRGETIVFGGGTHLTVLG	1.94

Proceeding to the next binder to report its fold improvement KD.
Fill in reported fold improvement KD for this entry: Fab 55E2 (Fab, V domains shown, VL-shuffled Fab of 29B11, periplasmic fraction; also called 55E2b) VH: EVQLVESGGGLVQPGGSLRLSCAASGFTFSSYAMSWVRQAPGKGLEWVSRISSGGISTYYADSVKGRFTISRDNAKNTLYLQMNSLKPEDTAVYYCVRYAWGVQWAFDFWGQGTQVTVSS VL: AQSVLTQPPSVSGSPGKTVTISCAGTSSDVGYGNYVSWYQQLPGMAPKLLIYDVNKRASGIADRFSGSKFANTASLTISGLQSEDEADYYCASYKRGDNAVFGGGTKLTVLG
3.46

All figures here come from patent US20220073604A1.
